pKi: −log10 of the molar value.
# literature pull: Androgen receptor (Homo sapiens, UniProt P10275) pKi
# Sequence (P10275 whole entry): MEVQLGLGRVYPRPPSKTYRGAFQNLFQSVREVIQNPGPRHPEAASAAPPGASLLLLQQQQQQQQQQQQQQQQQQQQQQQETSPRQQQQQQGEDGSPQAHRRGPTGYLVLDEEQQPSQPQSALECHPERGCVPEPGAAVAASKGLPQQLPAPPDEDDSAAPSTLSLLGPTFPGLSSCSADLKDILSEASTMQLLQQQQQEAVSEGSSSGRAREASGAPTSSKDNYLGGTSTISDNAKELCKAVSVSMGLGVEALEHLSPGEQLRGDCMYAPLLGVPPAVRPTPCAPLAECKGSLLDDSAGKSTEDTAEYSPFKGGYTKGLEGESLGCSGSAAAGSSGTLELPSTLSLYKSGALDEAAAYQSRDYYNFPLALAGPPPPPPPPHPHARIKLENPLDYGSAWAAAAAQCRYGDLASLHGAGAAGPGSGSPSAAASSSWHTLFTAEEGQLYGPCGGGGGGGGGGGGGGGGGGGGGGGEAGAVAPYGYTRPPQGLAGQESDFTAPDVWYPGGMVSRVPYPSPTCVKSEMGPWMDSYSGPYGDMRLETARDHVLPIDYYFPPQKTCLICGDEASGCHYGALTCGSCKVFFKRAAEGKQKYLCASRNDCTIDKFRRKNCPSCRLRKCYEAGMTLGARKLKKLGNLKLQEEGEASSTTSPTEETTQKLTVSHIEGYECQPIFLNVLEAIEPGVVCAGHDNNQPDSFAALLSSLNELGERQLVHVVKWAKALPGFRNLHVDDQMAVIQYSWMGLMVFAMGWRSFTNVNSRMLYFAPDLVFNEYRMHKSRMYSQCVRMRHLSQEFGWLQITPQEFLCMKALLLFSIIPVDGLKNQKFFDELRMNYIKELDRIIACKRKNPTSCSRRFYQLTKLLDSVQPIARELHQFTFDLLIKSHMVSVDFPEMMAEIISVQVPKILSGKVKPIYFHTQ
EXPERIMENTAL ENDPOINT: pKi

{"COMPOUND": "CC1=CC(C)(C)Nc2ccc3c(c21)C(C)Oc1ccc(F)cc1-3 (centres undefined)", "pKi": 6.34}
{"COMPOUND": "Cn1cc(Nc2ccc([N+](=O)[O-])cc2)cc1C(=O)N1CCCC1", "pKi": 5.31}
{"COMPOUND": "CC(C)N(c1ccc([N+](=O)[O-])cc1)c1cc(C(=O)N2CCCC2)n(C)c1", "pKi": 5.47}

1: COc1cc(NS(C)(=O)=O)c2[nH]c(C)c(-c3ccccc3)c2c1
2: O=c1[nH]c2cc(/C=C3\c4ccccc4COc4cc(F)ccc43)ccc2n1[C@H]1C[C@H]2COCCN2C1
3: C[C@H]1C(=O)C(C)(C)Nc2ccc3c(c21)[C@H](c1ccc(Cl)cc1)Oc1ccccc1-3
I would appreciate it if you could sort these 3 compounds by pKi, starting from the smallest number. Note for the reader: the ranking is given by listing the labels in the order requested.
1, 2, 3
(1: 5.39, 2: 5.93, 3: 6.16)

a: CO/N=C1/c2c(cc(F)c(-c3cccc4c(C)c[nH]c34)c2F)NC(C)(C)C1O (racemic)
b: CC(c1ccc(F)cc1)(c1c[nH]c2c(NS(C)(=O)=O)cccc12)C1CC1 (centres undefined)
c: CC1(C)C/C(=N\OC(C)(C)C)c2c(cc(F)c(-c3cccc4c(Cl)c[nH]c34)c2F)N1
I would appreciate it if you could sort these 3 compounds by pKi, starting from the smallest number. Note for the reader: the ranking is given by listing the labels in the order requested.
a, b, c
(a: 5.55, b: 6.66, c: 7.05)
